Values were extracted from PubChem BioAssay AID1963420.

Recorded viability, T/C for the following molecules
Tested on: 494315-158-R-J1-PDC complex spheroid growth, percent test/control
Test: Anticancer human tumor 494315-158-R-J1-PDC patient-derived soft tissue sarcoma cell line growth inhibition [Asc]
Settings: second compound 0.01 µM; first compound 0.00316 µM; stronger effect = lower value
Give the number; % is assumed, so skip it.

Worked set:
>>> numeric_result("CCN1CCN(Cc2ccc(Nc3ncc(F)c(-c4cc(F)c5nc(C)n(C(C)C)c5c4)n3)nc2)CC1 + CNC(C)C(=O)NC1CN(S(=O)(=O)c2cccc(S(=O)(=O)N3CCC4CCC(C(=O)NC(c5ccccc5)c5ccccc5)N4C(=O)C(NC(=O)C(C)NC)C3)c2)CCC2CCC(C(=O)NC(c3ccccc3)c3ccccc3)N2C1=O")
77.8
>>> numeric_result("COc1c(OCCCN2CCOCC2)ccc2c3n(c(=NC(=O)c4cnc(N)nc4)nc12)CCN3 + CNC(C)C(=O)NC1CN(S(=O)(=O)c2cccc(S(=O)(=O)N3CCC4CCC(C(=O)NC(c5ccccc5)c5ccccc5)N4C(=O)C(NC(=O)C(C)NC)C3)c2)CCC2CCC(C(=O)NC(c3ccccc3)c3ccccc3)N2C1=O")
65.8

# next molecule below
Problem: I have this molecule here, Cn1ncnc1[C@H]1c2n[nH]c(=O)c3cc(F)cc(c23)N[C@@H]1c1ccc(F)cc1 + CNC(C)C(=O)NC1CN(S(=O)(=O)c2cccc(S(=O)(=O)N3CCC4CCC(C(=O)NC(c5ccccc5)c5ccccc5)N4C(=O)C(NC(=O)C(C)NC)C3)c2)CCC2CCC(C(=O)NC(c3ccccc3)c3ccccc3)N2C1=O , and I need its recorded viability, T/C.
Result: 59.1

---

Recorded pIC50 for the following compounds
System: 494315-158-R-J1-PDC complex spheroid growth, percent test/control
Experiment: Anticancer human tumor 494315-158-R-J1-PDC cell line growth inhibition [Asc];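 also: compound exposure lasted seven days after spheroids formed for three days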
Conditions: curve of compound
pIC50: −log10 of the molar value.

Worked set:
>>> result("O=C(c1ccc(F)c(F)c1Nc1ccc(I)cc1F)N1CC(O)([C@@H]2CCCCN2)C1")
"< 6.00"
>>> result("C=CC(=O)N1CCN(c2nc(=O)n(-c3c(C)ccnc3C(C)C)c3nc(-c4c(O)cccc4F)c(F)cc23)C(C)C1 (stereo not drawn)")
"< 5.00"
>>> result("CCN1CCN(Cc2ccc(Nc3ncc(F)c(-c4cc(F)c5nc(C)n(C(C)C)c5c4)n3)nc2)CC1")
"< 6.00"
>>> result("Cn1ncnc1[C@H]1c2n[nH]c(=O)c3cc(F)cc(c23)N[C@@H]1c1ccc(F)cc1")
"< 7.00"

# next compound below
Problem: I have this compound here, NC1CCC(NC2CC2c2ccccc2)CC1 (stereo not drawn) , and I need its recorded pIC50.
Result: < 7.00

---

Recorded viability, T/C for the following molecules
System: 494315-158-R-J1-PDC complex spheroid growth, percent test/control
Experiment: Anticancer human tumor 494315-158-R-J1-PDC cell line growth inhibition [Asc];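 also: compound exposure lasted seven days after spheroids formed for three days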
Conditions: second compound 1 µM; first compound 0.1 µM; stronger effect = lower value
Give the number; % is assumed, so skip it.

>>> numeric_result("Cn1ncnc1[C@H]1c2n[nH]c(=O)c3cc(F)cc(c23)N[C@@H]1c1ccc(F)cc1 + CNC(C)C(=O)NC1CN(S(=O)(=O)c2cccc(S(=O)(=O)N3CCC4CCC(C(=O)NC(c5ccccc5)c5ccccc5)N4C(=O)C(NC(=O)C(C)NC)C3)c2)CCC2CCC(C(=O)NC(c3ccccc3)c3ccccc3)N2C1=O")
22.6
>>> numeric_result("NC1CCC(NC2CC2c2ccccc2)CC1 (stereo unspecified) + Cc1c(S(C)(=O)=O)c(-c2cc(F)cc(N3CCN(c4ccc(NS(=O)(=O)c5ccc(NC(CCN6CCC(C(=O)OCCCP(=O)(O)O)CC6)CSc6ccccc6)c(S(=O)(=O)C(F)(F)F)c5)cc4)CC3)c2)c(-c2ccc(Cl)cc2)n1C(C)C")
55.6
>>> numeric_result("Cn1ncnc1[C@H]1c2n[nH]c(=O)c3cc(F)cc(c23)N[C@@H]1c1ccc(F)cc1 + Cc1c(S(C)(=O)=O)c(-c2cc(F)cc(N3CCN(c4ccc(NS(=O)(=O)c5ccc(NC(CCN6CCC(C(=O)OCCCP(=O)(O)O)CC6)CSc6ccccc6)c(S(=O)(=O)C(F)(F)F)c5)cc4)CC3)c2)c(-c2ccc(Cl)cc2)n1C(C)C")
35

Problem: I have this molecule here, C#Cc1c(F)ccc2cc(O)cc(-c3ncc4c(N5CC6CCC(C5)N6)nc(OCC56CCCN5CC(F)C6)nc4c3F)c12 (stereo unspecified) + CNC(C)C(=O)NC1CN(S(=O)(=O)c2cccc(S(=O)(=O)N3CCC4CCC(C(=O)NC(c5ccccc5)c5ccccc5)N4C(=O)C(NC(=O)C(C)NC)C3)c2)CCC2CCC(C(=O)NC(c3ccccc3)c3ccccc3)N2C1=O , and I need its recorded viability, T/C.
Result: 43.8

Problem: I have this molecule here, CNC(C)C(=O)NC1CN(S(=O)(=O)c2cccc(S(=O)(=O)N3CCC4CCC(C(=O)NC(c5ccccc5)c5ccccc5)N4C(=O)C(NC(=O)C(C)NC)C3)c2)CCC2CCC(C(=O)NC(c3ccccc3)c3ccccc3)N2C1=O (stereo unspecified) + Cc1c(S(C)(=O)=O)c(-c2cc(F)cc(N3CCN(c4ccc(NS(=O)(=O)c5ccc(NC(CCN6CCC(C(=O)OCCCP(=O)(O)O)CC6)CSc6ccccc6)c(S(=O)(=O)C(F)(F)F)c5)cc4)CC3)c2)c(-c2ccc(Cl)cc2)n1C(C)C , and I need its recorded viability, T/C.
Result: 34.7

Problem: I have this molecule here, CCN1CCN(Cc2ccc(Nc3ncc(F)c(-c4cc(F)c5nc(C)n(C(C)C)c5c4)n3)nc2)CC1 + Cc1c(S(C)(=O)=O)c(-c2cc(F)cc(N3CCN(c4ccc(NS(=O)(=O)c5ccc(NC(CCN6CCC(C(=O)OCCCP(=O)(O)O)CC6)CSc6ccccc6)c(S(=O)(=O)C(F)(F)F)c5)cc4)CC3)c2)c(-c2ccc(Cl)cc2)n1C(C)C , and I need its recorded viability, T/C.
Result: 65.7

---

Tested on: 494315-158-R-J1-PDC complex spheroid growth, percent test/control
Assay: Anticancer human tumor 494315-158-R-J1-PDC cell line growth inhibition [Asc];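 also: compound exposure lasted seven days after spheroids formed for three days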
Conditions: second compound 0.316 µM; first compound 0.316 µM; stronger effect = lower value
Measure: viability, T/C (%)
Give the number; % is assumed, so skip it.

>>> numeric_result("C#Cc1c(F)ccc2cc(O)cc(-c3ncc4c(N5CC6CCC(C5)N6)nc(OCC56CCCN5CC(F)C6)nc4c3F)c12 (stereo not drawn) + CNC(C)C(=O)NC1CN(S(=O)(=O)c2cccc(S(=O)(=O)N3CCC4CCC(C(=O)NC(c5ccccc5)c5ccccc5)N4C(=O)C(NC(=O)C(C)NC)C3)c2)CCC2CCC(C(=O)NC(c3ccccc3)c3ccccc3)N2C1=O")
52.7

Problem: I have this compound here, C=CC(=O)N1CCN(c2nc(=O)n(-c3c(C)ccnc3C(C)C)c3nc(-c4c(O)cccc4F)c(F)cc23)C(C)C1 (stereo not drawn) + Cc1c(S(C)(=O)=O)c(-c2cc(F)cc(N3CCN(c4ccc(NS(=O)(=O)c5ccc(NC(CCN6CCC(C(=O)OCCCP(=O)(O)O)CC6)CSc6ccccc6)c(S(=O)(=O)C(F)(F)F)c5)cc4)CC3)c2)c(-c2ccc(Cl)cc2)n1C(C)C , and I need its recorded viability, T/C.
Result: 72.2

Problem: I have this compound here, CCN1CCN(Cc2ccc(Nc3ncc(F)c(-c4cc(F)c5nc(C)n(C(C)C)c5c4)n3)nc2)CC1 + Cc1c(S(C)(=O)=O)c(-c2cc(F)cc(N3CCN(c4ccc(NS(=O)(=O)c5ccc(NC(CCN6CCC(C(=O)OCCCP(=O)(O)O)CC6)CSc6ccccc6)c(S(=O)(=O)C(F)(F)F)c5)cc4)CC3)c2)c(-c2ccc(Cl)cc2)n1C(C)C , and I need its recorded viability, T/C.
Result: 70.9

---

Tested on: 494315-158-R-J1-PDC complex spheroid growth, percent test/control
Test: Anticancer human tumor 494315-158-R-J1-PDC cell line growth inhibition [Asc];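 also: compound exposure lasted seven days after spheroids formed for three days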
Settings: second compound 0.1 µM; first compound 0.316 µM; stronger effect = lower value
Measure: viability, T/C (%)
Give the number; % is assumed, so skip it.

Problem: I have this molecule here, COc1c(OCCCN2CCOCC2)ccc2c3n(c(=NC(=O)c4cnc(N)nc4)nc12)CCN3 + CNC(C)C(=O)NC1CN(S(=O)(=O)c2cccc(S(=O)(=O)N3CCC4CCC(C(=O)NC(c5ccccc5)c5ccccc5)N4C(=O)C(NC(=O)C(C)NC)C3)c2)CCC2CCC(C(=O)NC(c3ccccc3)c3ccccc3)N2C1=O , and I need its recorded viability, T/C.
Result: 12.8

---

Recorded viability, T/C for the following compounds
Tested on: 494315-158-R-J1-PDC complex spheroid growth, percent test/control
Experiment: Anticancer human tumor 494315-158-R-J1-PDC cell line growth inhibition [Asc];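 also: compound exposure lasted seven days after spheroids formed for three days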
Conditions: second compound 10 µM; first compound 3.16 µM; stronger effect = lower value
Give the number; % is assumed, so skip it.

Worked set:
>>> numeric_result("C#Cc1c(F)ccc2cc(O)cc(-c3ncc4c(N5CC6CCC(C5)N6)nc(OCC56CCCN5CC(F)C6)nc4c3F)c12 (centres undefined) + Cc1c(S(C)(=O)=O)c(-c2cc(F)cc(N3CCN(c4ccc(NS(=O)(=O)c5ccc(NC(CCN6CCC(C(=O)OCCCP(=O)(O)O)CC6)CSc6ccccc6)c(S(=O)(=O)C(F)(F)F)c5)cc4)CC3)c2)c(-c2ccc(Cl)cc2)n1C(C)C")
81.3
>>> numeric_result("C=CC(=O)N1CCN(c2nc(=O)n(-c3c(C)ccnc3C(C)C)c3nc(-c4c(O)cccc4F)c(F)cc23)C(C)C1 (centres undefined) + Cc1c(S(C)(=O)=O)c(-c2cc(F)cc(N3CCN(c4ccc(NS(=O)(=O)c5ccc(NC(CCN6CCC(C(=O)OCCCP(=O)(O)O)CC6)CSc6ccccc6)c(S(=O)(=O)C(F)(F)F)c5)cc4)CC3)c2)c(-c2ccc(Cl)cc2)n1C(C)C")
98.5
>>> numeric_result("O=C(c1cc(Cc2n[nH]c(=O)c3ccccc23)ccc1F)N1CCN(C(=O)C2CC2)CC1 + Cc1c(S(C)(=O)=O)c(-c2cc(F)cc(N3CCN(c4ccc(NS(=O)(=O)c5ccc(NC(CCN6CCC(C(=O)OCCCP(=O)(O)O)CC6)CSc6ccccc6)c(S(=O)(=O)C(F)(F)F)c5)cc4)CC3)c2)c(-c2ccc(Cl)cc2)n1C(C)C")
46.8

# next compound below
Problem: Find the measured viability, T/C: item C=C(F)C(=O)N1CCN(c2nc(OCC3CCCN3C)nc3c2CCN(c2cccc4cccc(Cl)c24)C3)CC1CC#N (centres undefined) + Cc1c(S(C)(=O)=O)c(-c2cc(F)cc(N3CCN(c4ccc(NS(=O)(=O)c5ccc(NC(CCN6CCC(C(=O)OCCCP(=O)(O)O)CC6)CSc6ccccc6)c(S(=O)(=O)C(F)(F)F)c5)cc4)CC3)c2)c(-c2ccc(Cl)cc2)n1C(C)C , target or system 494315-158-R-J1-PDC complex spheroid growth, percent test/control.
Result: 20
